experimental-system: T1, Human CD100 (human, UniProt Q92854 22-734, limits assumed)
T1 construct: also called SEMA4D; Hu CD100
T1 sequence (looked up): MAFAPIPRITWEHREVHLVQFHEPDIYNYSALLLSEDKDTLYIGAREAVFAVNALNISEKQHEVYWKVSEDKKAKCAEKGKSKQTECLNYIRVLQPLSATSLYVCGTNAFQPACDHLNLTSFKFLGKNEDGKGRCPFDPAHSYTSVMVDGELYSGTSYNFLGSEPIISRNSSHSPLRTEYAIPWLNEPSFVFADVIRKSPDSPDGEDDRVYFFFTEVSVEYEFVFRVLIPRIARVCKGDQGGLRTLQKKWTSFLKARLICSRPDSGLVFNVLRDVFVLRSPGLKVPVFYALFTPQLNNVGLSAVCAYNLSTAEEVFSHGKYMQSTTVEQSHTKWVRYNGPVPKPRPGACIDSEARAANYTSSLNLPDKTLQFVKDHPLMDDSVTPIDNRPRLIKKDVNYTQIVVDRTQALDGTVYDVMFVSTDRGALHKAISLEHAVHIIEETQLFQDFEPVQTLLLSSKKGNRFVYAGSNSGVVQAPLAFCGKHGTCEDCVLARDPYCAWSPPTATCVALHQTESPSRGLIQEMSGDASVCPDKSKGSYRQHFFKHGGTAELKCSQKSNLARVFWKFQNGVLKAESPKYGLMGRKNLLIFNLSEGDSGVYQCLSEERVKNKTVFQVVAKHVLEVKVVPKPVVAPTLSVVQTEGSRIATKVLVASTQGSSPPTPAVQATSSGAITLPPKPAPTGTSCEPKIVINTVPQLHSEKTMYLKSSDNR
experiment-summary: affinity testing, method and unit not printed in Example 10 (nM as in Table 3); mutant value, before the parentheses
pKd: −log10 of the molar value.
endpoint-name: pKd

MAb 2216 (antibody, V domains shown, H1651 mutant VH combined with L284; also called H1651 T59F with L284) VH: QVQLVQSGAEVKKPGSSVKVSCKASGYTFTDYYMDWVRQAPGQGLEWMGRVNPYHGGAFYNQKFKGRVTITADKSTSTAYMELSSLRSEDTAVYYCAREENSYDGYYGMDYWGQGTLVTVSS VL: DIVMTQSPLSLPVSPGEPATINCKSSQSLFNSGNQKNYLAWYLQKPGQPPKLLIYGASTRESGVPDRFSGSGSGTDFTLTISSLQAEDVAVYYCQNDHTYPYTFGQGTKLEIK
10.22
MAb 2125 (antibody, V domains shown, H1651 mutant VH combined with L284; also called H1651 E100D with L284) VH: QVQLVQSGAEVKKPGSSVKVSCKASGYTFTDYYMDWVRQAPGQGLEWMGRVNPYHGGATYNQKFKGRVTITADKSTSTAYMELSSLRSEDTAVYYCAREDNSYDGYYGMDYWGQGTLVTVSS VL: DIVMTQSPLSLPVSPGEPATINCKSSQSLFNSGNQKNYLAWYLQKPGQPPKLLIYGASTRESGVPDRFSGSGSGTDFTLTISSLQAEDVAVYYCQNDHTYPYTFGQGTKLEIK
9.18
MAb 2117 (antibody, V domains shown, H1651 mutant VH combined with L284; also called H1651 D104T with L284) VH: QVQLVQSGAEVKKPGSSVKVSCKASGYTFTDYYMDWVRQAPGQGLEWMGRVNPYHGGATYNQKFKGRVTITADKSTSTAYMELSSLRSEDTAVYYCAREENSYTGYYGMDYWGQGTLVTVSS VL: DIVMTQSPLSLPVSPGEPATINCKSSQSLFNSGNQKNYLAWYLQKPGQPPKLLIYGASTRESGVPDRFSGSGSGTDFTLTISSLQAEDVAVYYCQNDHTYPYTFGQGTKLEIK
9.28
MAb 2163 (antibody, V domains shown, H1651 mutant VH combined with L284; also called H1651 D31K with L284) VH: QVQLVQSGAEVKKPGSSVKVSCKASGYTFTKYYMDWVRQAPGQGLEWMGRVNPYHGGATYNQKFKGRVTITADKSTSTAYMELSSLRSEDTAVYYCAREENSYDGYYGMDYWGQGTLVTVSS VL: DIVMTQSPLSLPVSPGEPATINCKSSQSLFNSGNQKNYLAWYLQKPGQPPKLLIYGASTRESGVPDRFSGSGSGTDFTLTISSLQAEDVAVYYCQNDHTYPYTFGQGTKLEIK
10.22
MAb 2202 (antibody, V domains shown, H1651 mutant VH combined with L284; also called H1651 G57F with L284) VH: QVQLVQSGAEVKKPGSSVKVSCKASGYTFTDYYMDWVRQAPGQGLEWMGRVNPYHGFATYNQKFKGRVTITADKSTSTAYMELSSLRSEDTAVYYCAREENSYDGYYGMDYWGQGTLVTVSS VL: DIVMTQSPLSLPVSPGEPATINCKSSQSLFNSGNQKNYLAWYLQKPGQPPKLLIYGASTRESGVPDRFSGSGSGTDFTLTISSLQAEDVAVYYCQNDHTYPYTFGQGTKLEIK
10.22
